- system: T1, 5-Helix (HIV-1 group M subtype B, HXB2 (gp41 …, stabilised))
- T1 construct: also called designed protein based on HIV-1 gp41
- test: ELISA
- experimental-conditions: one partner purified
# phage ELISA signal OD450 per entry
Give the value, in units of OD450, as a plain number.

1. 16E12 bivalent scFv on phage (scFv, V domains shown) VH: QVQLVQSGAEVRKPGASVKVSCKASGDTFSSYAISWVRQAPGQGLEWMGGIIPIFGTANYAQAFQGRVTITANESTSTAYMELSSLRSEDTAIYYCARDNPTLLGSDYWGAGTLVTVSS VL: DIQMTQSPSTLSASIGDRVTITCRASEGIRRSLAWYQQKPGKAPKLLISNASHLASGAPSRFSGSGSGTDFTLTISSLQPDDFATYYCQQYYNYPRTFGGGTKLEIK: 3.1

*Q* Entry 25A10 bivalent scFv on phage (scFv, V domains shown) VH: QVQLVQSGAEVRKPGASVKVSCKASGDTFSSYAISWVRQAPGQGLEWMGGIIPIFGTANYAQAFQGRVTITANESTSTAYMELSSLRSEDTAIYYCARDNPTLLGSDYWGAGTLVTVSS VL: DIQMTQSPSTLSASIGDRVTITCRASESISHNLAWYQQKPGKAPKLLISNASRLASGAPSRFSGSGSGTDFTLTISSLQPDDFATYYCQQYSNYPLTFGGGTKLEIK : reported phage ELISA signal OD450 = ?
*A* 3.2
